system: NCI-H838; assay: cells; assay type: functional, cell-based, Homo sapiens; details: Homo sapiens, NCI-H838;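 further: growth inhibition of human NCI-H838 cells, read out by a cell viability assay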
Description: SANGER: Inhibition of human NCI-H838 cell growth in a cell viability assay.
MEASURE NAME: IC50

substance_smiles=N#Cc1c(O)c2c(-c3ccc(-c4ccccc4O)cc3)csc2[nH]c1=O value_observed="> 1.02 µM"

QUERY: Tell me measured IC50 for Oc1ccc2ccccc2c1SSc1c(O)ccc2ccccc12 please.
RESULT: > 32 µM

====

test system: KOSC-2; assay: cells; format: functional, cell-based, Homo sapiens; details: Homo sapiens, KOSC-2
Description: SANGER: Inhibition of human KOSC-2 cell growth in a cell viability assay.
Where a name gives a salt, the structure may show the parent alone.
MEASURE NAME: pIC50
Please express pIC50 as -log10 of the molar concentration.

compound="COC1=CC(c2cc3ccccc3[nH]2)=N/C1=C\\c1[nH]c(C)cc1C [OBATOCLAX MESYLATE]" measure_name=pIC50 value_observed=5.02

Okay, now this compound:
QUERY: Tell me measured pIC50 for CC(C)CCN1c2nc(Nc3cc(F)c(O)c(F)c3)ncc2N(C)C(=O)C1C (stereo not given) please.
RESULT: 5.95
